test system: EMC-BAC-2; test: relative viability (nuclei count vs DMSO), 5 days (fraction); higher = more cells survive; conditions: first compound 0.006325 µM
measured-endpoint: relative viability

Examples from the recorded data:
INSERT INTO assay_data (compound, experimental_target, measured_endpoint, test_result) VALUES
  ('CCNC(=O)c1noc(-c2cc(C(C)C)c(O)cc2O)c1-c1ccc(CN2CCOCC2)cc1 [Luminespib] + NC(=O)Nc1cc(-c2cccc(F)c2)sc1C(=O)N[C@H]1CCCNC1 [AZD7762] (partner 0.2 µM)', 'EMC-BAC-2', 'relative viability', 0.655),
  ('CCNC(=O)c1noc(-c2cc(C(C)C)c(O)cc2O)c1-c1ccc(CN2CCOCC2)cc1 [Luminespib] + Cc1cc(Nc2cc(N3CCN(C)CC3)nc(Sc3ccc(NC(=O)C4CC4)cc3)n2)n[nH]1 [Tozasertib] (partner 0.1 µM)', 'EMC-BAC-2', 'relative viability', 0.261),
  ('CCNC(=O)c1noc(-c2cc(C(C)C)c(O)cc2O)c1-c1ccc(CN2CCOCC2)cc1 [Luminespib] + COc1cc2c(Oc3ccc(NC(=O)C4(C(=O)Nc5ccc(F)cc5)CC4)cc3F)ccnc2cc1OCCCN1CCOCC1 [Foretinib] (partner 0.25 µM)', 'EMC-BAC-2', 'relative viability', 0.936),
  ('CCNC(=O)c1noc(-c2cc(C(C)C)c(O)cc2O)c1-c1ccc(CN2CCOCC2)cc1 [Luminespib] + C[C@]1(O)C[C@@H](c2nc(-c3ccc4ccc(-c5ccccc5)nc4c3)c3c(N)nccn32)C1 [Linsitinib] (partner 1 µM)', 'EMC-BAC-2', 'relative viability', 0.783);

Query compound follows.
Can you look up relative viability on EMC-BAC-2 for CCNC(=O)c1noc(-c2cc(C(C)C)c(O)cc2O)c1-c1ccc(CN2CCOCC2)cc1 [Luminespib] + CS(=O)(=O)N1CCN(Cc2cc3nc(-c4cccc5[nH]ncc45)nc(N4CCOCC4)c3s2)CC1 [Pictilisib] (partner 1 µM) ?
0.511
